# measurement-target: Recombinant Human NF-Kappab-Inducing Kinase (NIK/MAP3K14) (Homo sapiens, UniProt Q99558)
# Sequence (Q99558 whole entry): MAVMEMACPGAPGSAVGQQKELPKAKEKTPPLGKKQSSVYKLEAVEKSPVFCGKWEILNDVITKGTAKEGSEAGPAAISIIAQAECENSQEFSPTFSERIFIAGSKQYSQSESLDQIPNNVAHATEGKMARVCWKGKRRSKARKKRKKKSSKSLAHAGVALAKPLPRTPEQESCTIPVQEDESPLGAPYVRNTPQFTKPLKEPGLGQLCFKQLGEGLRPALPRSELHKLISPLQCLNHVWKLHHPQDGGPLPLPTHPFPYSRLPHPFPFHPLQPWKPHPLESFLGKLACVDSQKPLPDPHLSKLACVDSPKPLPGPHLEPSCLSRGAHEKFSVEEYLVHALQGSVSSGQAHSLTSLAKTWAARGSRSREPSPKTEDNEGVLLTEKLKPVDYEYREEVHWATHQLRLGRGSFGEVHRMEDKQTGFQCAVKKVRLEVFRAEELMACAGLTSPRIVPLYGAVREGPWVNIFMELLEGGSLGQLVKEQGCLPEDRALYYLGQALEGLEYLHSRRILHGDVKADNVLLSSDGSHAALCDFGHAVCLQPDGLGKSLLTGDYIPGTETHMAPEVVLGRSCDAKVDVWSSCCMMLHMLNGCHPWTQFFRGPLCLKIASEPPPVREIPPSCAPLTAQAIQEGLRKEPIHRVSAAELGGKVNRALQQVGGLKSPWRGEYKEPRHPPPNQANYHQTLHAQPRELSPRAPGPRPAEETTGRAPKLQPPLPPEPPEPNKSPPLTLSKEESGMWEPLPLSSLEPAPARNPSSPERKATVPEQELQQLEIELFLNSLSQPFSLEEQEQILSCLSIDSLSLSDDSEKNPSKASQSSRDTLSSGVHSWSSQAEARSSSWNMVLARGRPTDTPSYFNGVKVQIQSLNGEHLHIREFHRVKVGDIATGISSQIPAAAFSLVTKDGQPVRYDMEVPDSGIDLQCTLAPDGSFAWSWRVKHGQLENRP
# assay: Inhibition of auto-phosphorylation of recombinant human NIK/MAP3K14 (AlphaScreen)
# Assay type: biochemical
# assay-context: NIK/MAP3K14 auto-phosphorylation, 5 microM ATP, 1 nM enzyme, 2 h at 25° C.; average of values; read-out: Assay 1 IC50
Measured IC50, listed per entry.
measured-property: IC50

>>> result_value("CN1CC[C@@](O)(c2cc(-c3cccc(-c4cc(C(N)=O)nc5[nH]ccc45)c3)no2)C1=O")
"> 501 nM"
>>> result_value("CN1CC[C@@](O)(c2cc(-c3cccc(-c4ccc5[nH]ncc5n4)c3)no2)C1=O")
"100 to 500 nM"
>>> result_value("CN1CC[C@@](O)(c2cc(-c3cccc(-c4nc(C(N)=O)c(C5CC5)s4)c3)no2)C1=O")
"< 100 nM"
>>> result_value("[2H]c1nc(N)c2nc(-c3cccc(-c4cc([C@]5(O)CCN(C)C5=O)nn4C)c3)ccc2n1 (single isomer, unassigned)")
"100 to 500 nM"

* * *

# measurement-target: Recombinant Human NF-Kappab-Inducing Kinase (NIK/MAP3K14) (Homo sapiens, UniProt Q99558)
# assay: Inhibition of auto-phosphorylation of recombinant human NIK/MAP3K14 (AlphaScreen)
# Assay type: biochemical
# assay-context: NIK/MAP3K14 auto-phosphorylation, 5 microM ATP, 1 nM enzyme, 2 h at 25° C.; average of values; read-out: Assay 1 IC50
pIC50: −log10 of the molar value.
Recorded pIC50 by entry
measured-property: pIC50

>>> result_value("Cc1c(-c2cccc(-c3cc([C@]4(O)CCN(C)C4=O)on3)c2)nc(C(N)=O)n1C1CC1 [Example 122]")
"6.30 to 7.00"
>>> result_value("CN1CC[C@@](O)(c2cc(-c3cccc(-c4cc(-c5ccnn5C)cc(C(N)=O)n4)c3)no2)C1=O [Example 182]")
"> 7.00"
>>> result_value("Cc1nc(-c2cc(-c3cc([C@@]4(O)C(=O)N(C)CC4(F)F)on3)cc(F)c2F)nc2c(N)ncnc12 [Example 123]")
"> 7.00"
>>> result_value("Cc1ncn2cc(-c3cccc(-c4cc([C@]5(O)CCN(C)C5=O)on4)c3)ccc12 [Example 57]")
"< 6.30"
>>> result_value("CN1CC[C@@](O)(c2cc(-c3cccc(-c4ncc(N[C@H]5CCOC5)c(C(N)=O)n4)c3)no2)C1=O [Example 127]")
"> 7.00"
>>> result_value("CN1CC[C@@](O)(c2cc(-c3ccnc(-c4cccc(C(N)=O)n4)c3)no2)C1=O [Example 168]")
"> 7.00"
>>> result_value("CN1CCC(O)(c2cc(-c3cccc(-c4nccc(C(N)=O)n4)c3)on2)C1=O (racemic) [Example 161]")
"> 7.00"
>>> result_value("CN1CC[C@@](O)(c2cc(-c3cccc(-c4cccc5c(=O)[nH]ccc45)c3)no2)C1=O [Example 82]")
"< 6.30"
>>> result_value("Cc1ccc(-c2cccc(-c3cc([C@]4(O)CCN(C)C4=O)on3)c2)nc1C(N)=O [Example 154]")
"> 7.00"
>>> result_value("CN1CCC(O)(c2cc(-c3cccc(-n4nc(C(N)=O)c5ccccc54)c3)on2)C1=O (racemic) [Example 167]")
"> 7.00"
>>> result_value("Cc1cn(-c2cccc(-c3cc([C@]4(O)CCN(C)C4=O)on3)c2)nc1C(N)=O [Example 192]")
"> 7.00"
>>> result_value("CN1CC[C@@](O)(c2cc(-c3cccc(-c4ncc(NC5COC5)c(C(N)=O)n4)c3)no2)C1=O [Example 105]")
"> 7.00"
>>> result_value("CN1CC[C@@](O)(c2cc(-c3cccc(-c4nc(C(N)=O)c5n4CCN(CCC(F)(F)F)C5)c3)no2)C1=O [Example 232]")
"< 6.30"
>>> result_value("CC(C)c1sc(-c2cccc(-c3cc([C@]4(O)CCN(C)C4=O)on3)c2)nc1C(N)=O [Example 219]")
"> 7.00"
>>> result_value("CN1CC[C@@](O)(c2cc(-c3cccc(-n4cc(C(N)=O)c(N)n4)n3)no2)C1=O [Example 195]")
"> 7.00"

* * *

Each entry below carries its recorded pIC50.
# Tested on: p-IKKα levels in L363 (NIK translocated multiple myeloma) cells
# assay: Effect of compounds on p-IKKα levels in L363 cells (AlphaLISA SureFire Ultra)
# Format: cell-based
# assay-context: Homo sapiens, L-363; L363 cells, BAFF stimulated, MG132, 6 h; average of values; read-out: Assay 2 IC50
pIC50: −log10 of the molar value.
measured-property: pIC50

>>> result_value("COc1ncc(-c2cc(C(N)=O)nc(-c3cccc(-c4cc([C@]5(O)CCN(C)C5=O)on4)c3)c2)s1 [Example 191]")
"6.30 to 7.00"
>>> result_value("Cc1cn(-c2cccc(-c3cc([C@]4(O)CCN(C)C4=O)on3)c2)nc1C(N)=O [Example 192]")
"< 6.30"
>>> result_value("CC(=O)Nc1cc(-c2cccc(-c3cc([C@]4(O)CCN(C)C4=O)on3)c2)ccn1 [Example 54]")
"< 6.30"
>>> result_value("CN1CC[C@@](O)(c2cc(-c3cccc(-c4cccc5c4CNC5=O)c3)no2)C1=O [Example 59]")
"< 6.30"
>>> result_value("CN1CC[C@@](O)(c2cc(-c3cccc(-c4ncc(N)c(C(N)=O)n4)c3)no2)C1=O [Example 135]")
"> 7.00"
>>> result_value("CN1CC[C@@](O)(c2cc(-c3cccc(-c4nccc(C(N)=O)n4)c3)no2)C1=O [Example 146]")
"< 6.30"
>>> result_value("Cc1ccc(-c2cc([C@]3(O)CCN(C)C3=O)on2)cc1-c1nc2c(N)ncnc2s1 [Example 12]")
"< 6.30"
>>> result_value("Cc1nc(N)c2nc(-c3cccc(-c4cc([C@]5(O)CCN(C)C5=O)on4)c3)ccc2n1 [Example 1]")
"6.30 to 7.00"
>>> result_value("[2H]c1nc(N)c2nc(-c3cccc(-c4cc([C@@]5(O)CCN(C)C5=O)n[nH]4)c3)ccc2n1 (single isomer, unassigned) [Example 37]")
"< 6.30"
>>> result_value("Cc1cc(-c2cccc(-c3cc([C@]4(O)CCN(C)C4=O)on3)c2)nc2c(N)ncnc12 [Example 26]")
"> 7.00"
>>> result_value("Cc1nc2cc(-c3cccc(-c4cc([C@]5(O)CCN(C)C5=O)on4)c3)ccc2o1 [Example 63]")
"< 6.30"
>>> result_value("CN1CC[C@@](O)(c2cc(-c3cccc(-c4nc5c(c(C(N)=O)n4)[C@H]4CC[C@@H](C5)O4)c3)[nH]n2)C1=O [Example 173]")
"< 6.30"
>>> result_value("CC(=O)N1CC(Nc2sc(-c3cccc(-c4cc([C@]5(O)CCN(C)C5=O)on4)c3)nc2C(N)=O)C1 [Example 216]")
"< 6.30"
>>> result_value("CN1CC[C@@](O)(c2cc(-c3cccc(-c4c[nH]c5ncccc45)c3)no2)C1=O [Example 24]")
"< 6.30"
>>> result_value("CN1CC[C@@](O)(c2cc(-c3cccc(-c4cc(C5CC5)c(N)c(C(N)=O)n4)c3F)no2)C1=O [Example 242]")
"> 7.00"
>>> result_value("Cc1cn2nc(-c3cccc(-c4cc([C@]5(O)CCN(C)C5=O)on4)c3)ccc2n1 [Example 65]")
"< 6.30"
>>> result_value("Cc1nc(N)c2nc(-c3cc(-c4cc([C@]5(O)CCN(C)C5=O)on4)ccn3)ccc2n1 [Example 170]")
"< 6.30"
>>> result_value("CN1CC[C@@](O)(c2cc(-c3cccc(-c4nc(C(N)=O)c(CN)s4)c3)no2)C1=O [Example 237]")
"< 6.30"
>>> result_value("Cc1nc(N)c2nc(-c3ccc(-c4cc([C@]5(O)CCN(C)C5=O)on4)o3)ccc2n1 [Example 159]")
"6.30 to 7.00"
>>> result_value("CN1CC[C@@](O)(c2cc(-c3cccc(-c4nc(C(N)=O)c5n4CCN(Cc4ccccc4)C5)c3)no2)C1=O [Example 234]")
"< 6.30"
>>> result_value("Cc1ncn2cc(-c3cccc(-c4cc([C@]5(O)CCN(C)C5=O)on4)c3)ccc12 [Example 57]")
"< 6.30"
>>> result_value("CN1CC[C@@](O)(c2cc(-c3cccc(-n4ccc(C(N)=O)n4)c3)no2)C1=O [Example 193]")
"< 6.30"
>>> result_value("CN1CC[C@@](O)(c2cc(-c3ccnc(-c4ccc(N)c(C(N)=O)n4)c3)no2)C1=O [Example 169]")
"> 7.00"
>>> result_value("CN1CC[C@@](O)(c2cc(-c3cccc(-c4nc(C(N)=O)cc(C(F)(F)F)n4)c3)no2)C1=O [Example 98]")
"< 6.30"
>>> result_value("CN1CC[C@@](O)(c2cc(-c3cccc(-c4ccc5[nH]nc(N)c5n4)c3)no2)C1=O [Example 4]")
"< 6.30"
>>> result_value("CN1CC[C@@](O)(c2cc(-c3cccc(-c4ccn5nccc5n4)c3)no2)C1=O [Example 68]")
"< 6.30"
>>> result_value("Cc1cc(N2CCC[C@@H](c3cc([C@]4(O)CCN(C)C4=O)on3)C2)nc2c(N)ncnc12 (single isomer, unassigned) [Example 199]")
"< 6.30"
>>> result_value("CNc1ccc(-c2cccc(-c3cc([C@]4(O)CCN(C)C4=O)on3)c2)nc1C(N)=O [Example 104]")
"> 7.00"
>>> result_value("CN1CC[C@@](O)(c2cc(-c3cccc(-c4ncc(C(N)=O)s4)c3)no2)C1=O [Example 212]")
"< 6.30"
>>> result_value("Cc1cc(-c2cc([C@]3(O)CCN(C)C3=O)on2)cc(-c2cccc(C(N)=O)n2)c1 [Example 152]")
"< 6.30"
